# target_system: Epidermal growth factor receptor (Homo sapiens) (UniProt P00533)
# Sequence (P00533 whole entry, looked up): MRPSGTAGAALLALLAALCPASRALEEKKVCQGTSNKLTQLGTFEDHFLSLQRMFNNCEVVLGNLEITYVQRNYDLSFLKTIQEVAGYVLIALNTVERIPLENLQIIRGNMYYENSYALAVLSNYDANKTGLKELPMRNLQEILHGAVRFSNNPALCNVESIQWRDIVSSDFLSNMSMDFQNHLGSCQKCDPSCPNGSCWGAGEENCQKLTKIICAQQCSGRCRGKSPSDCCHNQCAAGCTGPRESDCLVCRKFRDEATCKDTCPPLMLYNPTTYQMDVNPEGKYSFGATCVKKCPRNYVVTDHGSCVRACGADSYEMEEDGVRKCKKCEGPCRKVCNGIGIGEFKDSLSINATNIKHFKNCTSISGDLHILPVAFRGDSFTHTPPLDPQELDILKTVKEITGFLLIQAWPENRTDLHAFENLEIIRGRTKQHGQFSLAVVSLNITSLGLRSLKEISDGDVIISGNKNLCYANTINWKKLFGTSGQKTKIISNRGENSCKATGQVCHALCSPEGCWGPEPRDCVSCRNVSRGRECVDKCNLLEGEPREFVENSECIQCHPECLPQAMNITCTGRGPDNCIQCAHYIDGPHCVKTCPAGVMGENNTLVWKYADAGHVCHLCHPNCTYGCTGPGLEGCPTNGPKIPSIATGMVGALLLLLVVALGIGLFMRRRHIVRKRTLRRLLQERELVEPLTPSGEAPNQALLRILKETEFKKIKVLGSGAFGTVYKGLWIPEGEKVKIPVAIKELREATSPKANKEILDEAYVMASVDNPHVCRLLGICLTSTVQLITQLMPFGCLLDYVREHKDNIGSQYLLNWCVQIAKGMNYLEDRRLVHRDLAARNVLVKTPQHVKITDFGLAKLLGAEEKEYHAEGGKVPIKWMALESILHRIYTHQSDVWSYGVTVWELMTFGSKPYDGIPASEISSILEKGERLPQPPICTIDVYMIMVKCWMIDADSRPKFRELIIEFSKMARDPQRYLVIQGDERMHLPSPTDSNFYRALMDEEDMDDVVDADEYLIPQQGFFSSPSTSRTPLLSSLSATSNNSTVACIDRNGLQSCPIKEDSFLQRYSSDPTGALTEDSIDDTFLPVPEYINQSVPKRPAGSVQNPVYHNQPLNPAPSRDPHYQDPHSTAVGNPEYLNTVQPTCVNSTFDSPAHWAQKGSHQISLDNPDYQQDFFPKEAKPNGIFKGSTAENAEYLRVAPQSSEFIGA
# method_description: EGFR binders on small-molecule microarrays, primary screen, biochemical, small-molecule microarray, 635 nm fluorescence (AID 1104);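 further: score merges 667 nm emission intensity with spot signal to noise over triplicate slides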
# measurement_parameters: EGFR binding, higher = more signal
The label depends only on composite z-score: t if it is at least -0.4, f if it is smaller.

1) CN1C(=O)C2C(C1=O)C1C=C(c3ccc(CO)cc3)C2C(c2cccs2)N1Cc1cccc(OC(F)(F)F)c1 (stereo not drawn) : t
2) COC(=O)Cn1c(C(=O)N2CCCC2)cc2c1C[C@H]1CN(C(=O)c3ccccc3)[C@@](Cc3ccc(F)cc3)(C(=O)OC)[C@@H]21 : t
3) C=C[C@@H](COC(C)=O)NS(=O)(=O)c1ccc(Br)cc1 : t
4) CC(=O)NCCCC[C@@H]1NC(=O)[C@@H]2C[C@H](C(=O)O)[C@H](c3ccc(O)cc3)N2C1=O : f
5) CCCCN1CC=CC23O[C@@H]4C=CCOC(=O)[C@@H]4[C@H]2C(=O)N(C(C)CO)[C@@H]3C1=O (stereo partly drawn) : f
6) C[C@@H]1ON(c2ccc(C(=O)OC(C)(C)C)cc2)[C@H](c2ccc(Br)cc2)[C@H]1C(=O)N1C(=O)OC[C@H]1Cc1ccccc1 : t
7) CN1C(=O)C2C=CC(C(O)C3CCCCC3)N(N3CCCCC3)C2C1=O (stereo not drawn) : t
8) O=C1O[C@H](c2ccccc2)[C@H](c2ccccc2)N2[C@H]1[C@@H](C(=O)O)[C@]1(C(=O)Nc3ccccc31)[C@H]2c1ccc(O)cc1 : f
9) COCCOC(=O)N1C(=O)[C@@]2(c3cc(C#CC4(O)CCCCCC4)ccc31)[C@H](C(N)=O)[C@H]1C(=O)O[C@H](c3ccccc3)[C@H](c3ccccc3)N1[C@@H]2c1ccccc1OCCO : t
10) CN(C)CCCNC(=O)[C@@H]1c2ccccc2C(=O)N(Cc2ccc(OC(F)(F)F)cc2)[C@H]1c1ccc(CO)cc1 : f
11) CC(C)CCC[C@@H](C)[C@H]1CC[C@@]2(C)C3=C(CC[C@]12C)[C@@]1(C)CC[C@H](OC(=O)c2ccc(Br)cc2)C(C)(C)C1CC3 (stereo partly drawn) : t
12) CCOC(=O)C1=CC[C@@H](c2ccccc2C(F)(F)F)N(S(=O)(=O)c2ccc(C)cc2)C1 : t
13) COC(=O)C[C@H]1O[C@]2(C(=O)N(C)c3ccccc32)[C@@H](C)[C@@H]1[Si](C)(C)c1ccc(C)cc1 : t
14) O=C1NC(=O)C2C1C=CC(C(O)c1ccc(Br)cc1)N2Nc1ccccn1 (stereo not drawn) : t
15) [N-]=[N+]=Nc1ccccc1C[C@]1(C(=O)NCc2ccccc2)N=C(c2ccc(OCCCO)cc2)O[C@H]1c1ccccc1 : t
16) COCCCNC(=O)[C@@]1(Sc2ccc(C)cc2)CC(=O)N(C2Cc3ccccc3C2)[C@@H]1c1ccc(CO)cc1I : f
17) [N-]=[N+]=NCc1ccccc1C[C@@]1(C(=O)N2CCCCC2)N=C(c2ccc(OCCCO)cc2)O[C@@H]1c1ccccc1N=[N+]=[N-] : t
18) COc1ccc([Si](C)(C)[C@H]2[C@H](CCn3cc([C@H](O)c4ccccc4)nn3)O[C@@]3(C(=O)N(Cc4ccc(N5CCOC5=O)cc4)c4ccccc43)[C@@H]2C)cc1 : t
19) CC(C)(C)OC(=O)CC[C@]1(C(=O)N2CCOCC2)N=C(c2ccc(OCCCO)cc2)O[C@H]1c1ccccc1 : f
20) C[C@]1(C(=O)NCCN2CCOCC2)c2ccccc2C(=O)N(Cc2ccc(OC(F)(F)F)cc2)[C@H]1c1ccc(CO)cc1 : f
21) COc1ccc([Si](C)(C)[C@@H]2[C@@H](CCO)O[C@]3(C(=O)N(Cc4cccc(N5C(=O)c6ccccc6Oc6ccccc65)c4)c4ccccc43)[C@H]2C)cc1 : f
22) CO[C@H]1O[C@H](CO)[C@@H](OC(=O)Nc2ccc(C(F)(F)F)cc2)[C@H](OC(=O)Nc2ccc3c(c2)OCO3)[C@H]1OC(=O)Nc1ccc2c(c1)OCO2 : t
23) [N-]=[N+]=NCc1ccccc1C[C@]1(C(=O)NCC(O)CO)N=C(c2ccc(OCCCO)cc2)O[C@H]1c1ccccc1CN=[N+]=[N-] (stereo partly drawn) : t
